Cited source for all entries: PubChem BioAssay AID1527

Assign inhibition to each entry below.
# Tested on: VIM-2 metallo-beta-lactamase (Pseudomonas aeruginosa)
# Assay Notes: inhibition of VIM-2 nitrocefin hydrolysis – biochemical, epi-absorbance readout, Pseudomonas aeruginosa enzyme, primary screen (AID 1527);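 also: red hydrolysis product quenches plate fluorescence so inhibitors raise well fluorescence; 0% = enzyme with DMSO and 100% = DMSO without enzyme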
# Particulars: purified VIM-2, nitrocefin hydrolysis, epi-absorbance fluorescence; at 5.6 µM; hits give high values
Hit rate of the full screen: of about 290,000 compounds, about 2,600 (0.9%) were called active. This excerpt belongs to a sample that is enriched for actives.
Output spec: scalar in %, unitless text.

Prompt line: Need inhibition, item COc1cc(/C=C2/SC(=S)N(Cc3ccccc3)C2=O)cc(OC)c1O
Response line: 7.8

Prompt line: For CC(=O)NC(CC(=O)Nc1cccc(S(=O)(=O)N2CCCC2)c1)c1ccccc1 (stereo not drawn) , what is its reported inhibition?
Response line: -3.12

Prompt line: Please report the recorded inhibition for CCCCNC(=O)c1ccccc1NC(=O)C1=C(C)OCCS1 .
Response line: -1.59

Prompt line: Can you share its inhibition? I mean this molecule: CCN(CCn1cccn1)Cc1nc(-c2ccc(C(=O)OC)cc2)no1
Response line: 0.55

Prompt line: Item CC1(C)Cc2c(sc(NC(=O)C(=O)NCC3CCCO3)c2C(=O)O)CO1 (stereo not drawn) has what recorded inhibition?
Response line: -1.53

Prompt line: Recorded inhibition of CCOC(=O)N1CCC(N2Cc3cccc(C(=O)Nc4ccc(S(=O)(=O)N(CC)CC)cc4)c3C2=O)CC1 , please.
Response line: 1.9

Prompt line: Value lookup for inhibition; key = CN(C)c1ccnc2sc(C(=O)c3ccccc3)c(N)c12
Response line: -2.05

Prompt line: Tell me the measured inhibition of COc1ccc(/C=C2\CCCC3C2=NN(C(=O)c2scnc2C)C3c2ccc(OC)cc2)cc1 (stereo not drawn) , please.
Response line: -4.89

Prompt line: Param item = Cn1c(=O)cc(OCCCC(=O)N2CCN(c3ccccn3)CC2)c2ccccc21 ; retrieve measured inhibition.
Response line: -0.05

Prompt line: Field request: inhibition | item: Cc1ccccc1NC(=O)C1CCN(C(=O)NC2CCCCC2)CC1
Response line: -1.56

Prompt line: What value of inhibition has been recorded for this entry: Cn1c(=O)cc(OCCCC(=O)N2CCN(Cc3ccc4c(c3)OCO4)CC2)c2ccccc21
Response line: 9.27

Prompt line: Using the record for O=C(Cc1cccs1)Nc1nnc(SCc2ccc(F)cc2)s1 , report its inhibition.
Response line: 0.7

Prompt line: Name the reported inhibition value associated with the molecule CCN(CC)C(=O)CSC(Nc1cccc(F)c1)=C(C#N)C#N
Response line: -4.85

Prompt line: inhibition for COc1ccc(CN2CC(C(=O)NC3CCCCC3)CC2=O)cc1 (stereo not drawn) ?
Response line: 0.64

Prompt line: Query (molecule): O=C(c1ccco1)N1CCN(C(=O)c2cc(-c3ccccc3F)no2)CC1 ; field requested: inhibition
Response line: -2.41

Prompt line: Using the record for Cc1cccn2c(=O)c3cc(C(=O)NCCN4CCOCC4)c(=N)n(Cc4cccnc4)c3nc12 , report its inhibition.
Response line: 4.67

Prompt line: Data request, read-out inhibition, for COc1ccc(Cl)cc1C(=O)NNC(=O)c1nc2nc(C)cc(C)n2n1
Response line: 10.3

Prompt line: Using the record for CCOC(=O)c1sc(NC(=S)n2cc(C)cn2)c(C(=O)OCC)c1C , report its inhibition.
Response line: -2.26

Prompt line: GET /values?readout=inhibition&item= CC(C(=O)NC1CCCCC1)N1C(=O)c2cccc3cccc1c23 (stereo not drawn)
Response line: 0.01

Prompt line: Fill blank: measured inhibition of the molecule COCCCNC(=O)[C@H]1N2C(=O)c3ccccc3C2SC1(C)C (stereo partly drawn) is ____.
Response line: 0.11

Prompt line: Given the molecule Cc1nn(-c2ccccc2)c(C)c1NC(=O)COc1ccc(Cl)cc1Cl , what is its reported inhibition?
Response line: -1.49

Prompt line: If you can, please state the reported inhibition value of Cc1ccccc1N1CCN(CCCN2C(=O)C3CCCCN3C2=O)CC1 (stereo not drawn) .
Response line: 0.15

Prompt line: Give the measured inhibition of CCOC(=O)c1oc2c(CN3CCN(C)CC3)c(O)ccc2c(=O)c1-c1ccc(Br)cc1 .
Response line: 2.09

Prompt line: Item COc1ccc2c(c1OC)C(=O)N(c1ccc(O)cc1)C2 has what recorded inhibition?
Response line: -1.4

Prompt line: Entry under review: Cc1cc(NC(=O)c2ccc(F)cc2)ccc1NC(=O)c1ccco1 . Reported inhibition?
Response line: -3.06

Prompt line: // query inhibition value for entry COc1ccc(/C=C2\SC(=S)N(CCC(=O)Nc3ccccn3)C2=O)cc1OC
Response line: -0.57

Prompt line: Which value of inhibition has been reported for CN(Cc1ccccn1)Cc1nc(-c2ccc(Cl)cc2)no1 in the records?
Response line: -2.91

Prompt line: Give the measured inhibition of CC(C)(C)CC(=O)Nc1nnc(SCC(=O)NCc2cccs2)s1 .
Response line: 20.2

Prompt line: GET /values?readout=inhibition&item= Cc1ccc2c(C)c(C(=O)N3CCN(c4ccncc4)CC3)oc2c1C
Response line: 3.45

Prompt line: Entry under review: COc1ccc(CCn2c(=N)c(C(=O)NCC3CCCO3)cc3c(=O)n4cccc(C)c4nc32)cc1OC (stereo not drawn) . Reported inhibition?
Response line: 16.1

Prompt line: // lookup inhibition for Cc1ccc(Oc2ccc3c(c2)C(=O)N(c2cccc4cccnc24)C3=O)cc1
Response line: 30.9

Prompt line: Recorded inhibition of Cc1cccn2c(=O)c3cc(C(=O)NCC4CCCO4)c(=N)n(Cc4ccc(F)cc4)c3nc12 (stereo not drawn) , please.
Response line: 5.79

Prompt line: Quick check: inhibition of COc1ccc(N2CCN(C(=O)c3ccccc3NC(=O)C3=C(C)OCCS3)CC2)cc1 ?
Response line: -0.86

Prompt line: # query: inhibition of entry Nc1c(C(=O)c2cccs2)sc2nsc(SCCN3CCCCC3)c12
Response line: 13.6

Prompt line: Query (molecule): Cc1nc2sc(C(=O)c3ccccc3)c(N)c2c2c1CCCC2 ; field requested: inhibition
Response line: 2.15

Prompt line: # query: inhibition of entry Cc1ccc(NC(=O)CSc2cccc3cccnc23)c(C)c1
Response line: -0.55

Prompt line: Would you kindly share the measured inhibition for Cc1ccccc1-n1cc(CNC(=O)C2CCC(=O)N(C3CC3)C2)cn1 (stereo not drawn) ?
Response line: -2.92

Prompt line: Name the recorded inhibition for CCCCn1c(-c2cccc(C)c2)nc2cc3[nH]c(=O)c(C(C)C)nc3cc21 .
Response line: -2.3

Prompt line: // returns reported inhibition for input Cc1cc(C)n2nc(C(=O)NC(C)(C)C)nc2n1
Response line: -3.78

Prompt line: Which inhibition value belongs to Cc1cccc(N2C(=O)c3cccnc3C2=O)c1 ?
Response line: -0.49

Prompt line: Which measured inhibition value corresponds to COCCCNC(NC(=O)c1ccc(C)cc1)C(Cl)(Cl)Cl (stereo not drawn) ?
Response line: -1.71

Prompt line: // query inhibition value for entry Cc1ccc(S(=O)(=O)c2nc(-c3cccs3)oc2NCc2cccnc2)cc1
Response line: -1.14

Prompt line: Please look up its inhibition: COc1ccc(-c2csc3ncnc(N4CCN(S(=O)(=O)c5ccccc5C#N)CC4)c23)cc1
Response line: -2
